Ok so here's the combined literature set: Ki for the protein given by its sequence.
Sequence of the target: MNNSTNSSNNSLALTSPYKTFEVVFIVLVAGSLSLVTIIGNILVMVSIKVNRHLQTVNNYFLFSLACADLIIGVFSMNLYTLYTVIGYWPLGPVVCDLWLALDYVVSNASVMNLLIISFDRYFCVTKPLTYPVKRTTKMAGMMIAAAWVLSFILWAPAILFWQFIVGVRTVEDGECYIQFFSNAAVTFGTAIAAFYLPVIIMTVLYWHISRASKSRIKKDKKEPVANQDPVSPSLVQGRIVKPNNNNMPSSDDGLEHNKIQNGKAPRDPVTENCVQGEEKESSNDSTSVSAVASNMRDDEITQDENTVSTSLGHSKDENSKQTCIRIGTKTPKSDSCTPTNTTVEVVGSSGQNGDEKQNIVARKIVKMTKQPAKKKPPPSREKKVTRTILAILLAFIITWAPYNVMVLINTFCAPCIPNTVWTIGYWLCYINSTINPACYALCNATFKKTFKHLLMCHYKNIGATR

# count of solved cases: 3
Recorded Ki of `N[C@H](CCS(=O)(=O)O)C(=O)O` , please.
> 10 µM

Further, for N[C@@H](CCS)C(=O)O (racemic) ?
> 10 µM

Further, for `C[C@@H]1O[C@@H](OC[C@H]2O[C@@H](Oc3c(-c4ccc(O)c(O)c4)oc4cc(O)cc(O)c4c3=O)[C@H](O)[C@@H](O)[C@@H]2O)[C@H](O)[C@H](O)[C@H]1O` ?
> 10 µM

Continuing:
Recorded Ki of CCN(CC)CC1CCCCN1CC(=O)N1c2ccccc2C(=O)Nc2cccnc21 (stereo not drawn) , please.
0.067 µM
